Just for reference, paper PMC3795721 is where these values come from.

target: AT4G31550 (Arabidopsis thaliana, UniProt Q9SV15 228-325); test: DPI-ELISA; DPI-ELISA, streptavidin 384-well plate, 1-2 pmol biotinylated dsDNA per well, crude native E. coli extract, anti-His detection; buffer as in Brand et al. [46],; high values mean tight binding; conditions: tags: C-terminal His (pET-DEST42); label: 5' biotin on forward strand; dsDNA, one strand shown
Sequence (Q9SV15 228-325): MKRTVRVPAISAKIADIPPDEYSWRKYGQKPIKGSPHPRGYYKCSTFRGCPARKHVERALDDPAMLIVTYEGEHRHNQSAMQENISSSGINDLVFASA
Reported binding signal by item:

| sequence | binding signal (absorbance) |
| --- | --- |
| AAAAAACTTGCTCCTCCGTTTTACTCAAAA | 0.775 |
| AAAAAAGGCGGTCGTAGTTGTGGGAGAAAA | 1.14 |
| AAAAAATCGGTACGCACCCCGGACTCAAAA | 0.73 |
| AAAAAAATCCGATCGATGCATATATAAAA | 0.725 |
| AAAAAACATTCCTAGTTCATGTTACTAAAA | 0.665 |
| AAAAAATCATCTCTATGTTATTGTTGAAAA | 0.58 |
| AAAAAAGCCTTTACCCTTGTTCCTCTAAAA | 0.69 |
| AAAAAAGCCATCATGGTTAGTGTACAAAAA | 0.665 |
| AAAAAACTAGGTATCGGTAGGCGCCGAAAA | 0.6 |
| AAAAAACTTCCCTCCTTGTCCTCCCCAAAA | 0.66 |
| AAAAAAATTCATGCTATTTAACCTTAAAAA | 0.745 |
| AAAAAAGGAAGTACTGACGATCTGGAAAAA | 0.615 |
| AAAAAAGTGTGTGGCTCAGGATTCCCAAAA | 0.55 |
| AAAAAATGGAAAGACCTATACCGGTCAAAA | 1.09 |
| AAAAAACCAGCCTCAGTCCTGAACAAAAAA | 0.605 |
| AAAAAAGGTAATGCCGGTCCCAGTATAAAA | 0.525 |
| AAAAAACGCTCCGTTTTTGCAATGCGAAAA | 0.61 |
| AAAAAACTGCTAATCGGTGACCCGATAAAA | 0.745 |
| AAAAAACACTTAACTGAGTGGGATTGAAAA | 0.705 |
| AAAAAAGTCTAGTCGTAAAAA | 0.595 |
| AAAAAAGGCTGTGGCCAATGTTCGTAAAAA | 0.55 |
| AAAAAAGGCCTTCGCTCGTGTTTACGAAAA | 0.4 |
| AAAAAAAACGTCTGGCGGGGTTGAGAAAAA | 0.65 |
| AAAAAATTCTTACTTTTGTCTTTACTAAAA | 0.79 |
| AAAAAATCTAGGGGTACCTATTTGGCAAAA | 0.675 |
| AAAAAAGTGTTTGTGCTTCTCTCTGTAAAA | 0.58 |
| AAAAAAACCCTGTGTCGGCCGATAAAAAA | 0.58 |
| AAAAAACAACTTGGAGGATTTACAGCAAAA | 0.73 |
| AAAAAAACGCTATATATTGGTGCTAGAAAA | 0.695 |
| AAAAAAGCTTCTCATGTTGTCTTAGGAAAA | 0.695 |
| AAAAAATCTATTCCATTTCGCCTTCTAAAA | 0.68 |
| AAAAAAGATGATTAGTAATTGCGGAAAAAA | 0.75 |
| AAAAAATGTTTTTTAGAGGTGTGCAAAAAA | 0.57 |
| AAAAAAATCAGCCTGACTCTGGGCGTAAAA | 0.71 |
| AAAAAATAAGTAACCGAACGAAACTCAAAA | 0.75 |
| AAAAAATCCACGACTCAGCAGCTCTTAAAA | 0.68 |
| AAAAAAAAATCGAATTTGGACTTCCGAAAA | 0.775 |
| AAAAAATGGTTTCAATTTTCCGTCCGAAAA | 0.405 |
| AAAAAATTGGCACACATGATCTCGGGAAAA | 0.56 |
| AAAAAATCAGTCTGAGACTTACAACTAAAA | 0.84 |
| AAAAAATAGTGTGATTGGTATCCAGTAAAA | 0.645 |
| AAAAAAGTCGTTACACGTATGCGTGCAAAA | 1.5 |
| AAAAAAGCTTTCAACATCTGCGTCCAAAAA | 0.42 |
| AAAAAAATGCGCCCTTTCTGACATAAAAAA | 0.615 |
| AAAAAAGTTGCCGACGATTGCGGGTTAAAA | 0.735 |
| AAAAAAAGGTCATTGCTGCTGGTGTTAAAA | 0.735 |
| AAAAAACATAACCGCAAAATCCCTACAAAA | 0.545 |
| AAAAAAATCTTTGCGTCGAGATTCTTAAAA | 0.59 |
| AAAAAAGGGTATACTCGCAGCCCCTAAAAA | 0.51 |
| AAAAAAGTCTCACCTTTAGTCTTAATAAAA | 0.64 |
| AAAAAAGACCGCAGCAAGAATTAAATAAAA | 0.49 |
| AAAAAATATATTTTCAGCTTTAATCTAAAA | 0.685 |
| AAAAAATGGATCTTTACTTTAGGCCAAAAA | 0.92 |
| AAAAAAACTTTCTATTCTGGATAAGTAAAA | 0.625 |
| AAAAAAGCCGTGGGTGATGGTCACAGAAAA | 0.56 |
| AAAAAAAACAAAACCTCCTAATAGCGAAAA | 0.42 |
